These data points were gathered from patent US20240209086A1.

target: canine CD3 on canine T cells (canine PBMC) (canine, UniProt P27597 22-202); test: cell-based or functional assay
Sequence (P27597 22-202 limits assumed, chain 1 of 3): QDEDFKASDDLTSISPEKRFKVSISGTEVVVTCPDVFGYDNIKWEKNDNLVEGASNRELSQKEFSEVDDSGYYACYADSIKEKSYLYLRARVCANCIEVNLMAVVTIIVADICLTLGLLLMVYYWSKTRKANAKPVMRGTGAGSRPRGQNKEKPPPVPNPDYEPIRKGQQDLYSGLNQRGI
Sequence (chain, as listed by the source limits assumed, chain 2 of 3): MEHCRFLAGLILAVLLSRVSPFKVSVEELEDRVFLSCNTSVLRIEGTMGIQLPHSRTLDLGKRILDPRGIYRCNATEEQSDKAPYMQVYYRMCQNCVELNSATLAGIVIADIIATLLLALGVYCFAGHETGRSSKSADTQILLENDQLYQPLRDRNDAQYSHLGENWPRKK
Sequence (chain, as listed by the source limits assumed, chain 3 of 3): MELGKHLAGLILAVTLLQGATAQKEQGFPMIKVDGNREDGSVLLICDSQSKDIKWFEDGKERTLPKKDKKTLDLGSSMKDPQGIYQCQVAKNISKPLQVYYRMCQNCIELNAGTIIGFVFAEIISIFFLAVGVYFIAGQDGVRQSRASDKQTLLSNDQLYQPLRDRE
Observable: CD25 Activation, Day 9, IS
One number for each entry.

Answered cases to consult:
Binder	CD25 Activation, Day 9, IS
PMX197 (monospecific anti-canine CD3, canine IgG-B effector function deficient Fc) (antibody, V domains shown) VH: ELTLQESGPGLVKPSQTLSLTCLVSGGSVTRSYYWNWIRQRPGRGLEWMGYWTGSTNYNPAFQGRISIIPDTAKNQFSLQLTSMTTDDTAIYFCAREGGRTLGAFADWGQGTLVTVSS VL: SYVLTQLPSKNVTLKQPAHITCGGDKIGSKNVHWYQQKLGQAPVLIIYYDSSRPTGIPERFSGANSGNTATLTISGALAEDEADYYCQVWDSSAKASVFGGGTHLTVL	9.24
PMX193 (monospecific anti-canine CD3, canine IgG-B effector function deficient Fc) (antibody, V domains shown) VH: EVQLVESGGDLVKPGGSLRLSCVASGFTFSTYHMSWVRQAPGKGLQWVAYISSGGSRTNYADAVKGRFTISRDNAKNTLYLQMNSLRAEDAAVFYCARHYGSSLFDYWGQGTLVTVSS VL: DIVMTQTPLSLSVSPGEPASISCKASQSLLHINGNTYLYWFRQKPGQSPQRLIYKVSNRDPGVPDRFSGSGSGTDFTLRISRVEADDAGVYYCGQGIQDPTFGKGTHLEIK	12.6

# next binder below
Input PMX192 (monospecific anti-canine CD3, canine IgG-B effector function deficient Fc) (antibody, V domains shown) VH: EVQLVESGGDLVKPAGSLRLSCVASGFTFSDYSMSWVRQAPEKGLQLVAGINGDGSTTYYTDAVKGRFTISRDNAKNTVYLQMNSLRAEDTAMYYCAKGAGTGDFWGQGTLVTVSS VL: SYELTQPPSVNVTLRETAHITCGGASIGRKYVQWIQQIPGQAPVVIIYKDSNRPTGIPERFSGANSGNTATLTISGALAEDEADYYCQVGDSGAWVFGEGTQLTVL . Output CD25 Activation, Day 9, IS: 10.3
